system: T1, EsCas13d, nuclease-dead (Eubacterium siraeum, UniProt B0MS50, R295A;H300A;R849A;H854A)
T1 sequence: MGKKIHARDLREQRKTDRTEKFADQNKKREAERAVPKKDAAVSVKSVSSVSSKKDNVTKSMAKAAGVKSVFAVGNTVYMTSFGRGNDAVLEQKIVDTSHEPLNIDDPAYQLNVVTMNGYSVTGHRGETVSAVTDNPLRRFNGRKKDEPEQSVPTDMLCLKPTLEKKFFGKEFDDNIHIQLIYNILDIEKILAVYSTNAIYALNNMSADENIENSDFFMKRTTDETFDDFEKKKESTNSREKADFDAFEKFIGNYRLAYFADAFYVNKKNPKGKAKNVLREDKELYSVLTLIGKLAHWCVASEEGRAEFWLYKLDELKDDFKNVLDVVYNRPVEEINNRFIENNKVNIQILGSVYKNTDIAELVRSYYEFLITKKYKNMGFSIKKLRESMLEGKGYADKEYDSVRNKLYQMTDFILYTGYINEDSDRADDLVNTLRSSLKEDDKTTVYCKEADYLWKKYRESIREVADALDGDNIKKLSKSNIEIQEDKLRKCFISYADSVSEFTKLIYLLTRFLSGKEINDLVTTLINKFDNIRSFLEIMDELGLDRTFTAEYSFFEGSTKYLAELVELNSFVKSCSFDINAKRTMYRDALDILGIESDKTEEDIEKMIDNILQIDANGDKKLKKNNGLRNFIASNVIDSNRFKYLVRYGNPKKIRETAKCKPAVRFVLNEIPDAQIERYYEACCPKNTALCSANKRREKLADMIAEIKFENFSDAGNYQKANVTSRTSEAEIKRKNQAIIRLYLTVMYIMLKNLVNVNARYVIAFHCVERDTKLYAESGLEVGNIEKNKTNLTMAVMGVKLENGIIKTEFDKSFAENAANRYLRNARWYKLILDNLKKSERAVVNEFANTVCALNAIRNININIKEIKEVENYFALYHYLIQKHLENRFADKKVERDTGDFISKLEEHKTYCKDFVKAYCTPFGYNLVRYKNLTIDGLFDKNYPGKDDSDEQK
method: crRNA (strand 1, pre-loaded); Mg2+; 40 mM Tris-HCl pH 7.5, 150 mM NaCl, 6 mM MgCl2, 1 mM DTT, 0.1% Tween-20, 0.2 mg/ml BSA; 25 C; 10 min per concentration, then washed
recorded_conditions: tags: His6-TwinStrep-SUMO cleaved; N-terminal SNAP kept (SNAP-Surface 488); label: 3' end held by stalled T7 RNA polymerase
Parameter Kd: see the listing below.
Dear colleague, please return just the value in nM, with no unit written.

1) target 1 A14G,C21U (mixed) RNA 1: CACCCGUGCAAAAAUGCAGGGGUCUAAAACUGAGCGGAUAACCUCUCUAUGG RNA 2: GGGAAUGGAUCCACAUCUACGAAUUCGUACUAUAGAGGGGUUAUCCGCUCACCGAGAUCGGAAGAGCACACGU
6.9

Okay, next one:
Ask: Recorded Kd of target 1 insC 3' of 12,insG 3' of 6 (mixed) RNA 1: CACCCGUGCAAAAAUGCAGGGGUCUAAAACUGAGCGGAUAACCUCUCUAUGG RNA 2: GGGAAUGGAUCCACAUCUACGAAUUCGUACCAUAGAGAGGCUUAUCCGGCUCACCGAGAUCGGAAGAGCACACGU , please.
Reply: 9.1

Sourced from paper PMC10786891
